Test system: HOP-92
Test: NCI tumour cell line growth inhibition, 48 h
Activity calls are given as the source filed them. Cut-off read from the data, not from the text of the source: active = GI50 up to about 1.1 µM and inactive = higher. Where a SMILES comes first, the peptide text is derived from it.
observable: GI50

[ask] Give its GI50 value. Item: N#CSCc1cccc(Nc2cc(=O)[nH]c(=O)[nH]2)c1
[reply] 14.8 µM (inactive)

[ask] Give its GI50 value. Item: COc1ccc([C@@]2(O)c3c(ccc(O)c3OC)[C@H]2OC)c(OC)c1
[reply] 53.6 µM (inactive)

[ask] Give its GI50 value. Item: CCC1=C(C)/C(=C/c2[nH]c(CBr)c(CC)c2C)N=C1CBr
[reply] 7.46 µM (inactive)

[ask] Give its GI50 value. Item: Cn1c2cccc3nnc4cccc(c4c32)n1C
[reply] > 100 µM (inactive)

[ask] Give its GI50 value. Item: CC(=O)O[C@H]1[C@H](O[C@H]2CC[C@]34C[C@]35CC[C@]3(C)[C@@H]([C@@]6(C)CC[C@@H](C(C)(C)O)O6)[C@@H](O)C[C@@]3(C)[C@@H]5C[C@H](O[C@@H]3O[C@H](CO)[C@@H](O)[C@H](O)[C@H]3O)[C@H]4C2(C)C)OC[C@@H](O)[C@@H]1O
[reply] > 100 µM (inactive)

[ask] Give its GI50 value. Item: C[C@@H](CC(O)C1OC1(C)C)[C@@H]1CC[C@]2(C)C3=CCC4C(C)(C)C(O)CC[C@]4(C)C3CCC12C (some centres not stated)
[reply] 17.9 µM (inactive)

[ask] Give its GI50 value. Item: CC1NC(=O)CNC(=O)CNC(=O)C(Cc2ccc(O)cc2)NC(=O)C(C(C)C)NC(=O)C(C)NC1=O (configuration not stated) (cyclo(GGAAVY); configuration not given here)
[reply] 50.8 µM (inactive)

###

System: HOP-62
Test: NCI tumour cell line growth inhibition, 48 h
The source made the active and inactive calls. No stated cut-off is given here; in the data, active = GI50 up to about 1.1 µM and inactive = higher. Where a SMILES comes first, the peptide text is derived from it.
One label from this list, please: 1.0 (active), 0.0 (inactive)

[ask] Per the records of this test, what outcome belongs to O=C1C2C3C4C1C1C2[C@H](OCc2ccccc2)C3C1[C@H]4OCc1ccccc1 (some centres undefined) ?
[reply] 0.0

[ask] Per the records of this test, what outcome belongs to N#CCc1cccc(CC#N)c1Br ?
[reply] 0.0

[ask] Per the records of this test, what outcome belongs to CN1CCC(SC2Cc3cc(Cl)ccc3Sc3ccccc32)CC1 (centres undefined) ?
[reply] 0.0

[ask] Per the records of this test, what outcome belongs to CCOC(=O)C(=O)/C(=C/N1C(=O)CC(=O)NC1=S)C(=O)OCC ?
[reply] 0.0

[ask] Per the records of this test, what outcome belongs to O=C(O)COc1c(Cl)cc(Cl)c(C(c2c(Cl)cc(Cl)c(OCC(=O)O)c2Cl)C(Cl)(Cl)Cl)c1Cl ?
[reply] 1.0

[ask] Per the records of this test, what outcome belongs to CC1NC(=O)CNC(=O)CNC(=O)C(Cc2ccc(O)cc2)NC(=O)C(C(C)C)NC(=O)C(C)NC1=O (centres undefined) (cyclo(GGAAVY); configuration not given here) ?
[reply] 0.0

[ask] Per the records of this test, what outcome belongs to COC(=O)[C@](NC(=O)OCc1ccccc1)([C@@H](C)Sc1ccc(C)cc1)C(F)(F)F ?
[reply] 0.0

[ask] Per the records of this test, what outcome belongs to CN(C)c1cccc(OC(=O)NCCCl)c1 ?
[reply] 0.0

[ask] Per the records of this test, what outcome belongs to O=C(O)CCC(NC(=O)c1ccccc1)C(=O)O (centres undefined) ?
[reply] 0.0

###

Test system: RPMI-8226
Assay: NCI tumour cell line growth inhibition, 48 h
Calls of active or inactive are those of the source. No stated cut-off is given here; in the data, active = GI50 up to about 1.1 µM and inactive = higher.
One label from this list, please: active, inactive

[ask] Per the records of this test, what outcome belongs to CCN(CC)CCCN1CCc2c([nH]c3ccccc23)C1c1cccnc1 (stereo unspecified) ?
[reply] inactive

[ask] Per the records of this test, what outcome belongs to CC(C)c1cc2c(O)c(c1)Cc1cc(C(C)C)cc(c1O)Cc1cc(C(C)C)cc(c1O)Cc1cc(C(C)C)cc(c1O)Cc1cc(C(C)C)cc(c1O)Cc1cc(C(C)C)cc(c1O)C2 ?
[reply] inactive

[ask] Per the records of this test, what outcome belongs to Cc1nc(N)c(-c2ccccc2)s1 ?
[reply] inactive

[ask] Per the records of this test, what outcome belongs to O=C(CCN(C(=O)O)S(=O)(=O)c1ccc(NC(=O)c2ccccc2)cc1)Nc1ccccc1 ?
[reply] inactive

[ask] Per the records of this test, what outcome belongs to COc1nc(=O)n(C2CC(F)C(CO)O2)cc1C (stereo unspecified) ?
[reply] inactive

[ask] Per the records of this test, what outcome belongs to CC(=O)Oc1ccccc1 ?
[reply] inactive

[ask] Per the records of this test, what outcome belongs to CCC1=C(C)/C(=C/c2[nH]c(CBr)c(CC)c2C)N=C1CBr ?
[reply] inactive

[ask] Per the records of this test, what outcome belongs to COC(=O)C1C2CC3C(OC(=O)C31)C2OC(=O)[C@](OC)(c1ccccc1)C(F)(F)F (stereo partly specified) ?
[reply] inactive

[ask] Per the records of this test, what outcome belongs to Cc1cc2cc3c(cc2c(-c2ccc(N)cc2)n1)OCO3 ?
[reply] inactive

[ask] Per the records of this test, what outcome belongs to NNc1nncn1N ?
[reply] inactive

[ask] Per the records of this test, what outcome belongs to O=C(CCN1CCOCC1)C(=Cc1ccccc1)C(=O)CCN1CCOCC1 ?
[reply] active

###

Test system: HT-29
Experiment: NCI tumour cell line growth inhibition, 48 h
Active and inactive are the calls of the source. Cut-off read from the data, not from the text of the source: active = GI50 up to about 1.1 µM and inactive = higher.
One label from this list, please: active, inactive

[ask] Per the records of this test, what outcome belongs to CN(C)c1ccccc1CN1CCCN(Cc2ccccc2N(C)C)C1c1ccncc1 ?
[reply] inactive

[ask] Per the records of this test, what outcome belongs to CCN(CC)c1ccc(/C=C(\C#N)c2nc(N)nc(N3N=C(C)CC3(C)C)n2)cc1 ?
[reply] inactive

[ask] Per the records of this test, what outcome belongs to COc1cc(C2SCC(=O)N2c2ccc(-c3ccc(-n4c(-c5ccccc5)nc5ccccc5c4=O)cc3)cc2)ccc1O (stereo not given) ?
[reply] inactive

[ask] Per the records of this test, what outcome belongs to COc1ccc2c3c1OC1C34CCN(C)C(C2)C4=CC(I)C1(OC)OC (stereo not given) ?
[reply] inactive

[ask] Per the records of this test, what outcome belongs to CC1(C)OC(C(=O)Nc2cc3c4ccccc4ccc3c3ccccc23)C(C(=O)N2CCCCC2)O1 (stereo not given) ?
[reply] active

[ask] Per the records of this test, what outcome belongs to CCc1n[nH]c(=O)n1/N=C(\C)c1ccc([N+](=O)[O-])cc1 ?
[reply] inactive

[ask] Per the records of this test, what outcome belongs to CN1CCC(SC2Cc3cc(Cl)ccc3Sc3ccccc32)CC1 (stereo not given) ?
[reply] inactive

[ask] Per the records of this test, what outcome belongs to CC(=O)NC1=C(Sc2ccc(Cl)cc2)C(=O)c2ccccc2C1=O ?
[reply] inactive

[ask] Per the records of this test, what outcome belongs to C[n+]1ccc2[nH]c3ccccc3c2c1 ?
[reply] inactive

[ask] Per the records of this test, what outcome belongs to CC(C)OC(=O)c1ccc(NCC2=CC(=O)C=CC2=O)cc1Cl ?
[reply] inactive

###

System: SK-OV-3
Test: NCI tumour cell line growth inhibition, 48 h
Calls of active or inactive are those of the source. No stated cut-off is given here; in the data, active = GI50 up to about 1.1 µM and inactive = higher. Square brackets hold non-standard residues; d marks the D form. Peptide text beside a SMILES is read from it.
Would you kindly list GI50 for each of these compounds?

[ask] # returns recorded GI50 (system: SK-OV-3) for S=c1[nH]nc(Cc2ccccc2)c(=S)[nH]1
[reply] > 81.5 µM (inactive)

[ask] # returns recorded GI50 (system: SK-OV-3) for C=C1NC(=O)C(CC(C(=O)C(=O)Nc2c(C)cccc2C(C)(C)C)C(=O)c2ccc3ccccc3c2)C(=O)N1 (configuration not stated)
[reply] > 100 µM (inactive)

[ask] # returns recorded GI50 (system: SK-OV-3) for CNc1nc2c(C)ccc3nc(N(C)C)nc-3c2n1C
[reply] > 10 µM (inactive)

[ask] # returns recorded GI50 (system: SK-OV-3) for O=C1C=CC(=O)c2c(O)c(N3CCN(c4ccccn4)CC3)cc(O)c21
[reply] 28.1 µM (inactive)

[ask] # returns recorded GI50 (system: SK-OV-3) for NC(=O)NC(=O)c1cccc(NC(=O)CCl)c1
[reply] 1.45 µM (inactive)

[ask] # returns recorded GI50 (system: SK-OV-3) for O=C(O)COc1c(Cl)cc(Cl)c(C(c2c(Cl)cc(Cl)c(OCC(=O)O)c2Cl)C(Cl)(Cl)Cl)c1Cl
[reply] 20.9 µM (inactive)

[ask] # returns recorded GI50 (system: SK-OV-3) for CC(=O)O[C@H]1CC[C@@]2(C)C(=CC[C@@H]3[C@@H]2CC[C@]2(C)C(=N/O)/C(=C/c4ccc([N+](=O)[O-])cc4)C[C@@H]32)C1
[reply] 11.9 µM (inactive)

[ask] # returns recorded GI50 (system: SK-OV-3) for NC(=O)c1ncn(CCN2CCN(C(=O)NCCCCCCNC(=O)N3CCN(CCn4cnc(C(N)=O)c4N)CC3)CC2)c1N
[reply] > 100 µM (inactive)

[ask] # returns recorded GI50 (system: SK-OV-3) for O=C(/C=C/c1ccccc1F)c1ccc([N+](=O)[O-])cc1
[reply] 56.5 µM (inactive)

[ask] # returns recorded GI50 (system: SK-OV-3) for COC(=O)Cc1c(C2C(CC(=O)OC)c3ccccc3N2C2OC(CO)C(O)C(O)C2O)[nH]c2ccccc12 (configuration not stated)
[reply] > 100 µM (inactive)

[ask] # returns recorded GI50 (system: SK-OV-3) for COC1=CC(=O)c2nc3ccccc3c3ccnc1c23
[reply] 26.9 µM (inactive)

[ask] # returns recorded GI50 (system: SK-OV-3) for CCN(CC)CC(O)CNc1ccc(NCC(O)CCl)c2c1C(=O)c1ccccc1C2=O (configuration not stated)
[reply] 18.9 µM (inactive)

[ask] # returns recorded GI50 (system: SK-OV-3) for O=C1c2ccccc2C(=O)N1CCn1ccc(NC(c2ccccc2)(c2ccccc2)c2ccccc2)nc1=O
[reply] 43.8 µM (inactive)

[ask] # returns recorded GI50 (system: SK-OV-3) for N#CSCc1cccc(Nc2cc(=O)[nH]c(=O)[nH]2)c1
[reply] > 100 µM (inactive)

[ask] # returns recorded GI50 (system: SK-OV-3) for COc1ccccc1/C=C1\CCC(CNc2ccc(Cl)cc2)C1=O (configuration not stated)
[reply] 1.73 µM (inactive)

[ask] # returns recorded GI50 (system: SK-OV-3) for CCCCCC1CC=CC(=O)O1 (configuration not stated)
[reply] 7.53 µM (inactive)

[ask] # returns recorded GI50 (system: SK-OV-3) for CC(C)C[C@H](NC(=O)[C@H](CC(C)C)NC(=O)[C@@H](Cc1c[nH]c2ccccc12)NC(=O)[C@H](Cc1ccccc1)NC(=O)[C@@H](Cc1c[nH]c2ccccc12)NC(=O)[C@H](CCC(N)=O)NC(=O)[C@@H](CCC(N)=O)NC(=O)[C@@H]1CCCN1C(=O)[C@@H](CCCCN)NC(=O)[C@H]1CCCN1C(=O)[C@H](N)CCCN=C(N)N)C(N)=O (H-[dR][dP][dK]P[dQ]Q[dW]F[dW]LL-NH2)
[reply] > 100 µM (inactive)

Reference source for all entries: ChEMBL document CHEMBL1201862
